Tested on: T47D
Assay: NCI tumour cell line growth inhibition, 48 h
Activity calls are given as the source filed them. Cut-off read from the data, not from the text of the source: active = GI50 up to about 1.1 µM and inactive = higher.
// classify into True = active, False = inactive

Worked examples, 2 molecules total:
1. O[C@H]1[C@H](O)[C@@H](O)[C@@]2(O)C[C@@H](O)[C@@H]1N2	False
2. CC1(C)CC2C(C1=O)C1(C)CCCC2(C)C1=O (stereo not given)	False

Prompt: Record lookup: outcome of this test for `CC1(C)O[C@H](C(=O)O)[C@@H](C(=O)O)O1` ?
Response: False

Prompt: How did this test come out for `COC(=O)/C(=C\c1ccco1)P(=O)(OC)OC` ?
Response: False

Prompt: Answer briefly: the call reported for `COc1cc2c(cc1OCCCCN1CCN(CCCCOc3cc4c(cc3OC)C(=O)N3CCC[C@H]3C=N4)CC1)N=C[C@@H]1CCCN1C2=O` in this assay.
Response: True

Prompt: GET /call?item= `Nc1cc(S(N)(=O)=O)ccc1SSc1ccc(S(N)(=O)=O)cc1N` returns the recorded outcome of this test.
Response: False

Prompt: Kindly provide the recorded test outcome for the following molecule: `CC1=CC(=O)/C(=C/NC(=S)C(N)=S)C(=O)O1`
Response: False

====

System: A498
Assay: NCI tumour cell line growth inhibition, 48 h
Active and inactive are the calls of the source. No stated cut-off is given here; in the data, active = GI50 up to about 1.1 µM and inactive = higher.
Response enum: active, inactive

Would you please look over these solved cases?
1. O=c1c2cc3c(=O)n4c(cc(-c5ccccc5)c5cc(Cl)ccc54)nc3cc2nc2cc(-c3ccccc3)c3cc(Cl)ccc3n12	inactive
2. CN(C)CCNc1ccc(C(=O)NCCCN(C)CCCNC(=O)c2ccc(NCCN(C)C)c3c(=O)c4ccccc4[nH]c23)c2[nH]c3ccccc3c(=O)c12	active
3. CC1=CC2CC(C)=C(CC[C@]3(C)CC[C@H]([C@@H](C)C(=O)O)OO3)C(C)(C)C2CC1 (stereo partly drawn)	inactive
4. CCCCNc1nc2ccccc2c2c1ncn2CC(C)C	inactive
5. O=C1CC(NCc2ccccc2)c2c(Cl)sc(Cl)c21 (stereo not drawn)	inactive
6. S=C(Nc1ccc2c(c1)Cc1ccccc1-2)Nc1ccc2c(c1)Cc1ccccc1-2	inactive
7. N#CC(C(=O)/C(=N/NC(=O)c1ccccc1O)C(C#N)c1ccc(Br)cc1)c1ccc(Br)cc1 (stereo not drawn)	inactive
8. CN(CN1C(=O)C2Cc3ccccc3CN2C1=O)c1ccccn1 (stereo not drawn)	inactive

Prompt: Field: outcome | Entry: `CC(=O)OC1=C(CC(C)(C)C)C(=O)c2ccccc2C1=O`
Response: inactive

Prompt: Could you check what this test reported for NC(=O)C(c1ccccc1)N1CCOCC1 (stereo not drawn) ?
Response: inactive

Prompt: Each compound tested received a call. Report the one for `COc1ccc(C(=O)N(Cc2cccnc2)C(=S)N(Cc2cccnc2)C(=O)c2ccc(OC)cc2)cc1` .
Response: inactive

Prompt: Returns: the outcome recorded for `O=C(Oc1ccccn1)c1cc2cc(CCl)ccc2oc1=O` in this assay.
Response: inactive

Prompt: Hi team, can someone confirm the assay call for `Nc1c2ccccc2nc2c(C(=O)Nc3ccc(S(N)(=O)=O)cc3)cccc12` ?
Response: inactive

Prompt: For this compound, state the assay outcome: COC1(C(C)(C)C)C=C(C(C)(C)C)P(=O)(O)O1 (stereo not drawn)
Response: inactive

Prompt: Recorded call for `C/C(=N\NC(N)=S)c1cc(C)c(C)cc1C` ?
Response: inactive

Prompt: Please share the test call associated with `COc1ccc(/C=C/C(=O)Oc2ccccc2OC)cc1` .
Response: inactive

====

Tested on: SK-OV-3
Assay: NCI tumour cell line growth inhibition, 48 h
Activity calls are given as the source filed them. Rule as the data show it: active = GI50 up to about 1.1 µM and inactive = higher.
Use one of these outcomes when replying: active, inactive

1. CCOC(=O)N/N=C(/N)c1cccc([N+](=O)[O-])c1	inactive
2. COc1cc(CCc2ccc(N)cc2)cc(OC)c1OC	inactive
3. CCN(CC)CC(=O)Nc1c(C(N)=O)nnn1Cc1cc(Cl)c(C(=O)c2ccc(Cl)cc2)c(Cl)c1	inactive
4. CC1CCCc2c(CC3CC(=O)NC(=O)C3)n[nH]c21 (stereo not given)	inactive
5. CC[C@@]1(OC(=O)C(N)CCC(=O)O)C(=O)OCc2c1cc1n(c2=O)Cc2cc3ccccc3nc2-1 (stereo not given in full)	active

Prompt: Call for entry COC(=O)C1=C(OC(=O)/C(=C/c2ccc(Cl)cc2)c2ccc(Cl)cc2)C(C(=O)OC)[C@@]2(O)[C@@H](C(=O)OC)[C@H](C)C[C@@H]1[C@@H]2C(=O)OC (stereo not given in full) :
Response: inactive

Prompt: Outcome logged for `COc1cccc2nc3c(C(=O)NCCN(C)C)cccc3nc12` in this assay:
Response: inactive

Prompt: Assay result, entry CC(=O)OC(CC1(C)C(C)CCC23COC(=O)C2=CCCC31)c1ccoc1 (stereo not given) — outcome?
Response: inactive

Prompt: Which outcome did this test record for the compound `CCc1c(Cl)nc(Cl)nc1Cl` ?
Response: inactive

Prompt: Dear colleague, could you share the recorded outcome for `COc1ccc(C(=O)NCCN(C)C)c2nc3ccccc3cc12` when you have a moment?
Response: inactive

Prompt: Test call for this compound, please: `CCOC(=O)C1(C(=O)OCC)C(C(C)(C)C)=C(C)c2ccccc21`
Response: inactive

Prompt: What did this assay record as the result for `Cc1nc(O)nc2nc3ccc(Cl)cc3c(N(CCO)CCO)c12` ?
Response: inactive

Prompt: I'd appreciate the recorded outcome for `COc1ccc(-c2cc(O)c3cc(C)cnc3n2)cc1` from this test.
Response: inactive

Prompt: Any idea what this test logged for `CC(C)(C)[C@H]1CO[C@]2(c3ccccc3)[C@@H]3C[C@@H]3C(=O)N12` ?
Response: inactive

====

Tested on: SF-295
Experiment: NCI tumour cell line growth inhibition, 48 h
Activity calls are given as the source filed them. No stated cut-off is given here; in the data, active = GI50 up to about 1.1 µM and inactive = higher.
Quantity Name: GI50

Study these solved cases before continuing.
1) CCCCCCCCCCCC(=O)NCc1ccc(OC(=O)CCCCCCCCCCC)c(OC)c1	> 66.4 µM (inactive)
2) O=C(Cc1nc2ccccc2s1)C(=O)Nc1cccc(Cl)c1	> 100 µM (inactive)
3) OCC1(CNc2cc(Cl)ncn2)CCC1	> 100 µM (inactive)

GET /value?item= `O=C(/C=C/c1ccc(Cl)cc1)c1ccc(Cl)c(Cl)c1` &field=GI50 returns 35.2 µM (inactive)

For this compound ( COC1(C(C)(C)C)C=C(C(C)(C)C)P(=O)(O)O1 (stereo unspecified) ), measured GI50 is > 100 µM (inactive)

Sure, the documented GI50 for `Cn1cnc([N+](=O)[O-])c1Sc1nc(N)nc2c1ncn2Cc1ccccc1` is 44.9 µM (inactive)

C[C@H]1C(=O)c2c(cc(O)c(C3OC(CO)C(O)C(O)C3O)c2O)OC1c1ccc(O)c(O)c1 (stereo partly specified) yielded GI50 of > 100 µM (inactive)

Record summary for CCN(CC)CC1CCCCN1CC(=O)N1CC(C)C(=O)Nc2ccccc21 (stereo unspecified) : reported GI50 = > 100 µM (inactive)

Documented GI50 of CN(C)CC1CCC(CN(C)C)C1=NO (stereo unspecified) : > 10 µM (inactive)

// field: GI50; key: CC(=O)OC(CC1(C)C(C)CCC23COC(=O)C2=CCCC31)c1ccoc1 (stereo unspecified) ; value = 28.7 µM (inactive)

GI50 in this record for CN1C(=O)C(C)(C)C2(SC(C)(C)C2(C)C)N(C)C1=S (stereo unspecified) : > 100 µM (inactive)

====

Tested on: HL-60
Assay: NCI tumour cell line growth inhibition, 48 h
Calls of active or inactive are those of the source. Cut-off read from the data, not from the text of the source: active = GI50 up to about 1.1 µM and inactive = higher. Where a SMILES comes first, the peptide text is derived from it.
Write down one outcome, taken from active, inactive

1) CC(C)N1CCOC(c2ccc(O)c(O)c2)C1 (stereo not given)	inactive

Prompt: Status in this test for CC(C)CC(NC(=O)C(Cc1ccccc1)NC(=O)C(Cc1c[nH]c2ccccc12)NC(=O)CNC(=O)C(N)Cc1ccc(O)cc1)C(=O)O (stereo not given) (H-YGWFL-OH; configuration not given here) ?
Response: inactive

====

Tested on: SNB-75
Assay: NCI tumour cell line growth inhibition, 48 h
Active and inactive are the calls of the source. Rule as the data show it: active = GI50 up to about 1.1 µM and inactive = higher.
Listing of entries alongside the reported GI50.

Check out these entries, answers already filled in.
1. O=S(=O)(O)c1cc(S(=O)(=O)O)c2c(/N=N/c3ccc(S(=O)(=O)O)c4ccccc34)c(O)ccc2c1	> 100 µM (inactive)
2. COC1(C(C)(C)C)C=C(C(C)(C)C)P(=O)(O)O1 (centres undefined)	> 100 µM (inactive)
3. CN(C)CC1CCC(CN(C)C)C1=NO (centres undefined)	> 10 µM (inactive)
4. COC(=O)C1=C(O)C(C(=O)OC)[C@]2(O)[C@H](C(=O)OC)[C@H]1C[C@@H](c1cccc(OC)c1)[C@H]2C(=O)OC (some centres undefined)	27.5 µM (inactive)
5. O=C(Cc1nc2ccccc2s1)C(=O)Nc1cccc(Cl)c1	48.9 µM (inactive)
6. COC(=O)C1=C(OC(=O)/C(=C/c2ccc(Cl)cc2)c2ccc(Cl)cc2)C(C(=O)OC)[C@@]2(O)[C@@H](C(=O)OC)[C@H](C)C[C@@H]1[C@@H]2C(=O)OC (some centres undefined)	> 56 µM (inactive)
7. O=C1c2ccccc2C(=O)c2[nH]c(Cc3ccc(F)cc3)nc21	20.9 µM (inactive)
8. O=C(Nc1ccc([N+](=O)[O-])cc1C(=O)O)c1ccc([N+](=O)[O-])cc1	> 100 µM (inactive)

`CC1=CC(=O)/C(=C/NC(=S)C(N)=S)C(=O)O1` has a reported GI50 of 19 µM (inactive)
